Let's look at some binders and their measured pKd.
- measured_on: T1, 6xHis-tagged HACS1 SH3 domain (human, UniProt Q9NSI8 163-224)
- T1 construct: human HACS1 SH3 domain, codon-optimized synthetic gene; Gene synthesized, in a pD441NH expression vector (ATUM); 15N-labelled in the NMR experiments; Minimal folded SH3 domain is 168-222 by the NMR structure; also called HACS SH3 domain; 6xHis-tagged SH3 domain; source: E. coli, purified (Nickel-NTA, gel filtration)
- method: SPR; biotinylated phosphopeptide on a streptavidin gold sensor chip (OpenSPR); analyte 20 µM to 0.1 µM in 10 mM Tris-HCl, 100 mM NaCl, pH 7.4, 0.1% bovine serum albumin, 0.005% Tween-20, 0.05% NaN3; 40 µL/min; 1:1 interaction model
- condition_label: both partners purified
Non-standard residues stand in square brackets, D forms with d. No end group written: not given here. pY = N[C@@H](Cc1ccc(OP(=O)(O)O)cc1)C(=O)O
When answering, recall that pKd equals minus log10 of the concentration in mol/L, and write that number alone.

GGQDVT[pY]AQLHSLTRLREATE (also: biotin (position not given here)) [biotinylated human PIRB derived phosphopeptide]
5.06

Query: // returns reported pKd for input GGQDVT[pY]AQLCSRTLRQGAAAS (also: biotin (position not given here), The leading GG may be a spacer and not part of PIRB; also called murine PIRB phospho-ITIM3 peptide; source: synthetic peptide (Genscript)) [biotinylated murine PIRB derived phosphopeptide]
Result: 4.80

Data origin, for the record: paper PMC7666139
